Test system: Vero E6
Test: cell viability relative to DMSO; higher = less toxic
Conditions: 72 h; 100 nM
REPORTED PROPERTY: cell viability (%)
Please give a number only; it is taken to be in %.

[[record]]
compound = "O=C(CCCCCCNC(=O)c1cnc(N(c2ccccc2)c2ccccc2)nc1)NO"
reported_property = "cell viability"
readout_number = 94.2

[[record]]
compound = "Clc1ccc([C@]23CNC[C@H]2C3)cc1Cl"
reported_property = "cell viability"
readout_number = 100

[[record]]
compound = "CCN(CC)CCOc1ccc2c(c1)C(=O)c1cc(OCCN(CC)CC)ccc1-2"
reported_property = "cell viability"
readout_number = 97.5

[[record]]
compound = "Cc1cccc(Nc2cc(Cl)nc(SCC(=O)O)n2)c1C"
reported_property = "cell viability"
readout_number = 98.8

[[record]]
compound = "N[C@H]1CCN(O)C1=O [HA-966-(S)-(-)]"
reported_property = "cell viability"
readout_number = 93.3


Look at this compound and give its reported cell viability. "Cc1cc(-c2ccc(CC(=O)Nc3ccc(-c4cccnc4)cc3)cc2)ccn1" 100

Look at this compound and give its reported cell viability. "Nc1nc(N)c(N=O)c(OCC2CCCCC2)n1" 99.8

Look at this compound and give its reported cell viability. "Fc1ccc(Cl)cc1-c1nc(Nc2ccncc2)c2nccnc2n1" 106

Cited source: the supplement of paper PMC13380429
